The following molecules are listed with their measured EC50 values.
- experimental target: Recombinant human soluble guanylate cyclase (sGC), alpha 1 / beta 1 subunits, heme-free (Homo sapiens, UniProt Q02108+Q02153)
- Construct: histidine tag (C); made in house; host or cells: Sf9 insect cells (baculovirus coinfection)
- Sequence (Q02108 whole entry partner): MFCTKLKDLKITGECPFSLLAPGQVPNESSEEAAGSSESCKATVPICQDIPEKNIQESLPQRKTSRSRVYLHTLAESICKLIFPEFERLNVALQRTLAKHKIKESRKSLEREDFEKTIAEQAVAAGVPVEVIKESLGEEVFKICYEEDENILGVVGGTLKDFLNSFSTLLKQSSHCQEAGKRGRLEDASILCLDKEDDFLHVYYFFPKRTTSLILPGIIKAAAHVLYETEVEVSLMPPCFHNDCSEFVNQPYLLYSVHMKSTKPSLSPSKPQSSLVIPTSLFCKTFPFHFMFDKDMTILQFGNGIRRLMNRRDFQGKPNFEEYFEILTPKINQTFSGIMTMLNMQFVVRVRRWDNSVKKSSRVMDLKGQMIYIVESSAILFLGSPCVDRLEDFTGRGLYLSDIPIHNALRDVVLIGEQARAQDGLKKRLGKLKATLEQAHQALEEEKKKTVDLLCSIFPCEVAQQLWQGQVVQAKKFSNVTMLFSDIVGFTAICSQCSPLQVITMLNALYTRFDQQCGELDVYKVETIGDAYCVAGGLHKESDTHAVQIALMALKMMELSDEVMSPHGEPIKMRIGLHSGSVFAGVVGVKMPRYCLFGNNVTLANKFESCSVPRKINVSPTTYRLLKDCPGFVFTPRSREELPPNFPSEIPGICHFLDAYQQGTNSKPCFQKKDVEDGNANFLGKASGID
- Sequence (Q02153 whole entry): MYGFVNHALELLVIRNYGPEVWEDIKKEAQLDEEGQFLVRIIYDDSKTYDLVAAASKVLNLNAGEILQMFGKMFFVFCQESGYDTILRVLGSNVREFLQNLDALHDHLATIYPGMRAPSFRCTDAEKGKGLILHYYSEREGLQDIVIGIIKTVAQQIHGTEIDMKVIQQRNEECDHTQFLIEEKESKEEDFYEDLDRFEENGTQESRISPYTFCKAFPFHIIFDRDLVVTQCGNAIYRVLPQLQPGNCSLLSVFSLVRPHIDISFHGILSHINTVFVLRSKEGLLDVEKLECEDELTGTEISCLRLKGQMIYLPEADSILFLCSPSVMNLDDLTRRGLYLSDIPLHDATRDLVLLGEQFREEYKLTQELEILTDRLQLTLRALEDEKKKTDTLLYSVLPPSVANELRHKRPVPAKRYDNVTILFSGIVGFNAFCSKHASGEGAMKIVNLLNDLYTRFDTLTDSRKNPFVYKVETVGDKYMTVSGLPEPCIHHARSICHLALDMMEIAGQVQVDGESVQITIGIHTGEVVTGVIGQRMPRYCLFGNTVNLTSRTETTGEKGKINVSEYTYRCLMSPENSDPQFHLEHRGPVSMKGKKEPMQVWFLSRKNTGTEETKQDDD
- method summary: Molecular assay: cGMP formation by heme-free recombinant sGC (CisBio cGMP detection kit)
- Format: biochemical
- test conditions: 300 pM heme-free sGC, 37° C., 60 min, cGMP readout; read-out: EC50 nM, Activity of Compounds in Molecular Assay
Value expressed in nM; do not type the unit.

# count of solved cases: 3
Cc1ccc(OCc2ccc(CNC(C)(C)CO)cc2C#N)c(-c2csc(N3CCC(C(=O)O)CC3)n2)c1 [Compound 47]    4000
Cc1ccc(OCc2ccc(CN3CCC(S(C)(=O)=O)CC3)cc2C)c(-c2csc(N3CCC(C(=O)O)CC3)n2)c1 [Compound 138]    180
Cc1cc(C(=O)N2CCCCC2)ccc1COc1ccc(Cl)cc1-c1csc(C2CCC(C(=O)O)CC2)n1 (stereo not shown) [Compound 182]    1600

Turning to the following molecule.
Query: Quickly give me recorded EC50 for Cc1cc(C(=O)N2CCCCC2)ccc1COc1ccc(F)cc1-c1csc(N2CC3CCC(C2)C3C(=O)O)n1 (stereo not shown) [Compound 98]
Response: 780
